Attribution: ChEMBL document CHEMBL3259517

Known IC50 of a selection of compounds
target: CDK9/cyclin T1 (Homo sapiens, UniProt P50750); assay: Inhibition of CDK9/CycT1 (unknown origin) using TAMRA-Rbtide and ATP as substrate after 1 hr; type: protein-complex assay
Sequence (O60563 whole entry): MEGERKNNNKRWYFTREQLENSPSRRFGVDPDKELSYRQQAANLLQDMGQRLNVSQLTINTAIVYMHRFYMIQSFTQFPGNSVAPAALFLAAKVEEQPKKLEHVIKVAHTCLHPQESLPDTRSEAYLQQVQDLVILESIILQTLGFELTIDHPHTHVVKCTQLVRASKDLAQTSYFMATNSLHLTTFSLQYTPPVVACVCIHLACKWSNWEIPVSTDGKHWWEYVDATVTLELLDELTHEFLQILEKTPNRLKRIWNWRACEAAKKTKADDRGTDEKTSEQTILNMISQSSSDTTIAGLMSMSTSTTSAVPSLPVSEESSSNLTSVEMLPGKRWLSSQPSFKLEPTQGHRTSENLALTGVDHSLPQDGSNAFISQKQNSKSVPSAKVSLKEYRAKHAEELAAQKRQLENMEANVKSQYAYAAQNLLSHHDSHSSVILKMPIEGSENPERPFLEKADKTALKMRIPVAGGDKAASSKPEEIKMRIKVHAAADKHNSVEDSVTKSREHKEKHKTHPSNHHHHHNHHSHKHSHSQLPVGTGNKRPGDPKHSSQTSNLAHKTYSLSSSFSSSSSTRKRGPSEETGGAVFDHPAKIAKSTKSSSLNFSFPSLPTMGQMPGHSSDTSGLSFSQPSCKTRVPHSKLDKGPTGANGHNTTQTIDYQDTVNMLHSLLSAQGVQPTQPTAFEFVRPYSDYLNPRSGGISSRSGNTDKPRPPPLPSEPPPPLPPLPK
Sequence (P50750 whole entry): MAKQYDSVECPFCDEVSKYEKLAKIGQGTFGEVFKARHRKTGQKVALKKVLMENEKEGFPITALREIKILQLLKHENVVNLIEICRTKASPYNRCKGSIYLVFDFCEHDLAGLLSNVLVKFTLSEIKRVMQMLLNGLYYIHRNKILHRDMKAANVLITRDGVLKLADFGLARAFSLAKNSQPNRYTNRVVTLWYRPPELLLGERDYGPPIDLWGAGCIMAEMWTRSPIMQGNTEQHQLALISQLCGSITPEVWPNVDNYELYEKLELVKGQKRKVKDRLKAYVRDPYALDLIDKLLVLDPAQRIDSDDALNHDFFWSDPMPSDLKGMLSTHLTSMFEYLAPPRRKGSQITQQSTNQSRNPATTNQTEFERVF

Some compounds with recorded IC50:
| compound | reported_measurement |
| --- | --- |
| CCCP(=O)(Cc1ccc(Nc2cc(-c3ccccc3OC)ncn2)cc1)OCC (stereo unspecified) | 652 nM |
| CCCP(=O)(O)Cc1cccc(Nc2cc(-c3ccccc3OC)ncn2)c1 | 261 nM |
| CCCP(=O)(O)Cc1cccc(Nc2cc(-c3ccccc3OCc3ccccc3)ncn2)c1 | 142 nM |
| CCOP(=O)(CC)c1ccc(Nc2cc(-c3ccccc3OC)ncn2)cc1 (stereo unspecified) | 418 nM |

Param item = CCCP(=O)(Cc1cccc(Nc2cc(-c3cccc(OCc4ccccc4)c3)ncn2)c1)OCC (stereo unspecified) ; retrieve measured IC50.
> 10000 nM

Also, CCOP(=O)(CC)Cc1cccc(Nc2cc(-c3ccccc3OC)ncn2)c1 (stereo unspecified) please.
197 nM

Also, CCCP(=O)(Cc1cccc(Nc2cc(-c3cccc(N)c3)ncn2)c1)OCC (stereo unspecified) please.
682 nM

Also, CCCP(=O)(Cc1cccc(Nc2cc(-c3ccccc3OCC)ncn2)c1)OCC (stereo unspecified) please.
254 nM

Also, CCOP(=O)(CC)Cc1cccc(Nc2cc(-c3cccc([N+](=O)[O-])c3)ncn2)c1 (stereo unspecified) please.
6430 nM

Also, CCCP(=O)(OCC)c1ccc(Nc2cc(-c3ccccc3OC)ncn2)cc1 (stereo unspecified) please.
1150 nM

Also, CCOP(=O)(OCC)C(O)c1ccc(Nc2cc(-c3cccc([N+](=O)[O-])c3)ncn2)cc1 (stereo unspecified) please.
4580 nM

Also, `CCOP(=O)(OCC)c1ccc(Nc2cc(-c3ccccc3OC)ncn2)cc1` please.
1020 nM

Also, CCOP(=O)(CC)Cc1cccc(Nc2cc(-c3ccccc3OCc3ccccc3)ncn2)c1 (stereo unspecified) please.
212 nM

Also, `COc1ccccc1-c1cc(Nc2ccc(P(=O)(O)O)cc2)ncn1` please.
580 nM

Also, CCOP(=O)(CC)c1ccc(Nc2cc(-c3cccc([N+](=O)[O-])c3)ncn2)cc1 (stereo unspecified) please.
> 10000 nM

Also, CCOP(=O)(CC)c1cccc(Nc2cc(-c3cccc(N)c3)ncn2)c1 (stereo unspecified) please.
9800 nM

Also, CCCP(=O)(OCC)c1ccc(Nc2cc(-c3cccc(N)c3)ncn2)cc1 (stereo unspecified) please.
> 10000 nM

Also, CCOP(=O)(Oc1cccc(Nc2cc(-c3cccc([N+](=O)[O-])c3)ncn2)c1)c1ccccc1 (stereo unspecified) please.
> 10000 nM

###

molecular target: Cyclin-dependent kinase 2/cyclin E1 (Homo sapiens) (UniProt P24864+P24941); assay: Inhibition of CDK2/CycE (unknown origin) using FAM labeled peptide as substrate at 10 uM by IMAP FAM FP assay; format: protein-complex assay
Please enter true (1) where inhibition is greater than or equal to 60%, and false (0) where it is lower.

Some solved entries appear below for comparison.
| molecule | cat |
| --- | --- |
| COc1ccccc1-c1cc(Nc2cccc(P(=O)(O)O)c2)ncn1 | false (0) |
| CCOP(=O)(OCC)c1ccc(Nc2cc(-c3cccc(N)c3)ncn2)cc1 | false (0) |
| CCOP(=O)(Oc1cc(Nc2cc(-c3ccccc3OC)ncn2)ccc1C)c1ccccc1 (stereo not given) | false (0) |
| Nc1cccc(-c2cc(Nc3ccc(P(=O)(O)O)cc3)ncn2)c1 | true (1) |
| CCOP(=O)(Nc1cc(Nc2cc(-c3ccccc3OC)ncn2)ccc1C)c1ccccc1 (stereo not given) | false (0) |
| CCOP(=O)(Cc1ccc(Nc2cc(-c3ccccc3OC)ncn2)cc1)OCC | true (1) |

// inclusive: inhibition at least 60%? input: `CCOP(=O)(OCC)c1ccc(Nc2cc(-c3ccccc3OC)ncn2)cc1`
true (1)

Also, `CN1CC[C@H](c2c(O)cc(O)c3c(=O)cc(-c4ccccc4Cl)oc23)[C@H](O)C1` please.
true (1)

Also, CCOP(=O)(OCC)C(O)c1ccc(Nc2cc(-c3ccccc3OC)ncn2)cc1 (stereo not given) please.
true (1)

Also, `CCOP(=O)(Cc1ccc(Nc2cc(-c3cccc(N)c3)ncn2)cc1)OCC` please.
false (0)
